# measurementDescription: Cytotoxicity assay HepG2
# condition: human
pIC50: −log10 of the molar value.
observable: pIC50

[[record]]
molecule = "CO[C@@H]1c2cc(OC(C)=O)c(OC(C)=O)cc2O[C@@]2(C)CC[C@H]3C(C)(C)CCC[C@]3(C)[C@@H]12"
assayvalue = "~3.97"

[[record]]
molecule = "CO[C@@H]1c2cc(OC(=O)C(C)(C)C)c(O)cc2O[C@@]2(C)CC[C@H]3C(C)(C)CCC[C@]3(C)[C@@H]12 [Compound 19, 15-α-methoxypuupehenol monopivalate]"
assayvalue = "< 3.70"

[[record]]
molecule = "CC1(C)CCC[C@]2(C)[C@H]3C=C4C=C(O)C(=O)C=C4O[C@@]3(C)CC[C@@H]12 [Compound 1, (+)-Puupehenone]"
assayvalue = 4.15


====

SI (SIR) J774 listing for selected compounds.
# System: J774A.1 (murine macrophage-like) cell line
# measurementDescription: Cytotoxicity assay J774A.1
# Assay type: cell-based
observable: SI (SIR) J774

[[record]]
compound = "CCC(=O)Oc1cc2c(cc1OC(=O)CC)[C@@H](OC(=O)CC)[C@@H]1[C@@]3(C)CCCC(C)(C)[C@@H]3CC[C@]1(C)O2"
system = "J774A.1 (murine macrophage-like) cell line"
observable = "SI (SIR) J774"
readoutrelation = "="
assayvalue = 9.4

[[record]]
compound = "CO[C@@H]1c2cc(OC(C)=O)c(OC(C)=O)cc2O[C@@]2(C)CC[C@H]3C(C)(C)CCC[C@]3(C)[C@@H]12"
system = "J774A.1 (murine macrophage-like) cell line"
observable = "SI (SIR) J774"
readoutrelation = "="
assayvalue = 6.6

[[record]]
compound = "CO[C@@H]1c2cc(OC(=O)C(C)(C)C)c(O)cc2O[C@@]2(C)CC[C@H]3C(C)(C)CCC[C@]3(C)[C@@H]12 [Compound 19, 15-α-methoxypuupehenol monopivalate]"
system = "J774A.1 (murine macrophage-like) cell line"
observable = "SI (SIR) J774"
readoutrelation = "="
assayvalue = 4.4

[[record]]
compound = "CC(=O)Oc1cc2c(cc1OC(C)=O)[C@@H](OC(C)=O)[C@@H]1[C@@]3(C)CCCC(C)(C)[C@@H]3CC[C@]1(C)O2 [Compound 20, 15-α-acetoxypuupehenol diacetate]"
system = "J774A.1 (murine macrophage-like) cell line"
observable = "SI (SIR) J774"
readoutrelation = ">"
assayvalue = 33.3

[[record]]
compound = "CC1(C)CCC[C@]2(C)[C@H]3C=C4C=C(O)C(=O)C=C4O[C@@]3(C)CC[C@@H]12 [Compound 1, (+)-Puupehenone]"
system = "J774A.1 (murine macrophage-like) cell line"
observable = "SI (SIR) J774"
readoutrelation = "="
assayvalue = 7.7

[[record]]
compound = "CCC(=O)Oc1cc2c(cc1OC(=O)CC)[C@@H](OC)[C@@H]1[C@@]3(C)CCCC(C)(C)[C@@H]3CC[C@]1(C)O2"
system = "J774A.1 (murine macrophage-like) cell line"
observable = "SI (SIR) J774"
readoutrelation = "="
assayvalue = 6.8


====

# Test system: HepG2 (human liver carcinoma) cell line
# measurementDescription: Cytotoxicity assay HepG2
SI (SIR) HepG2 listing for selected compounds.
observable: SI (SIR) HepG2

[[record]]
compound = "CO[C@@H]1c2cc(OC(=O)C(C)(C)C)c(O)cc2O[C@@]2(C)CC[C@H]3C(C)(C)CCC[C@]3(C)[C@@H]12 [Compound 19, 15-α-methoxypuupehenol monopivalate]"
assayvalue = "> 15.7"

[[record]]
compound = "CCC(=O)Oc1cc2c(cc1OC(=O)CC)[C@@H](OC)[C@@H]1[C@@]3(C)CCCC(C)(C)[C@@H]3CC[C@]1(C)O2"
assayvalue = "> 22.5"

[[record]]
compound = "CC(=O)Oc1cc2c(cc1OC(C)=O)[C@@H](OC(C)=O)[C@@H]1[C@@]3(C)CCCC(C)(C)[C@@H]3CC[C@]1(C)O2 [Compound 20, 15-α-acetoxypuupehenol diacetate]"
assayvalue = "> 33.3"

